Tested on: HCMV TB40-YFP
Experiment: HCMV TB40-YFP replication assay in HFFs
Type: cell-based, human cytomegalovirus
Conditions: Human betaherpesvirus 5, HFF, read-out: EC50 TB40-YFP
test-readout: pEC50
Answers are plain numbers, as −log10 of the molar value.

>>> number("Cn1ncc2cc(-c3cnc(N)c(Cl)c3N3CCC4(CCNC4=O)CC3)ccc21 [CCT-151921]")
8.00

For each of the compounds below, state pEC50.
1. CN(C)C(=O)Cn1cc(-c2ccc(-c3cncc4ccccc34)cc2)cn1 [BI-1347]
2. Cc1n[nH]c2ncc(C(=O)N3CCC[C@H]3c3ccc(Cl)cc3)cc12 [MSC-2530818]

8.55
8.30

###

Tested on: MHV-68-Luc
Assay: MHV-68 replication assay in Vero cells
Type: cell-based, murine herpesvirus 68
Settings: Murine herpesvirus, read-out: EC50 MHV-68
test-readout: pEC50
Give bare numbers, as −log10 of the molar value.

# example entries with known answers
>>> number("Cc1n[nH]c2ncc(C(=O)N3CCC[C@H]3c3ccc(Cl)cc3)cc12")
8.60
>>> number("Cn1ncc2cc(-c3cnc(N)c(Cl)c3N3CCC4(CCNC4=O)CC3)ccc21")
7.66

We now examine a further compound.
Provide pEC50 value for the following compound: CN(C)C(=O)Cn1cc(-c2ccc(-c3cncc4ccccc34)cc2)cn1 9.10

###

System: HHV-6A-GFP
Assay: HHV-6A replication assay in J-Jhan cells
Assay type: cell-based, human herpesvirus type 6A
Details: Homo sapiens, read-out: EC50 HHV-6A
Protocol: […] A variety of antiherpesviral and non-herpesviral drug activities were assessed by the cell culture-based viral replication systems, as described elsewhere. […] After incubation at 37 °C for 3 days, iSLK.219 cells were fixed with 10% formalin, washed with PBS, and used for a quantitation of RFP reporter signal by PicoMD counting (ImageXpress® Pico device, Molecular Devices LLC, San Jose, CA, USA). […]
test-readout: EC50

Recorded EC50, per entry:
>>> result("CN(C)C(=O)Cn1cc(-c2ccc(-c3cncc4ccccc34)cc2)cn1 [BI-1347]")
"> 50 µM"
>>> result("Cc1n[nH]c2ncc(C(=O)N3CCC[C@H]3c3ccc(Cl)cc3)cc12 [MSC-2530818]")
"> 50 µM"

Next up:
Specify EC50 for Cn1ncc2cc(-c3cnc(N)c(Cl)c3N3CCC4(CCNC4=O)CC3)ccc21 [CCT-151921] , system HHV-6A-GFP. 39 µM

###

Test: Neutral Red uptake cell viability assay in mock-infected HFFs
Type: cell-based
Conditions: human, mock-infected (uninfected) HFFs; read-out: CC50 Mock-inf.
test-readout: CC50 at 7 d

>>> result("CN(C)C(=O)Cn1cc(-c2ccc(-c3cncc4ccccc34)cc2)cn1")
"> 100 µM"

Here's the next entry for you.
Return value of CC50 at 7 d for input Cc1n[nH]c2ncc(C(=O)N3CCC[C@H]3c3ccc(Cl)cc3)cc12 , no commentary. > 100 µM

###

Kindly state pEC50 for each of the entries shown.
Test system: HCMV AD169-GFP
Assay: microbe, parasite or virus in culture
Assay type: cell-based, human cytomegalovirus
Conditions: Human betaherpesvirus 5, AD169, read-out: EC50 HCMV
Give bare numbers, as −log10 of the molar value.

Reference set, count: 2
>>> number("Cn1ncc2cc(-c3cnc(N)c(Cl)c3N3CCC4(CCNC4=O)CC3)ccc21 [CCT-151921]")
8.41
>>> number("Cc1n[nH]c2ncc(C(=O)N3CCC[C@H]3c3ccc(Cl)cc3)cc12 [MSC-2530818]")
8.92

Okay, now this compound:
Read the entry CN(C)C(=O)Cn1cc(-c2ccc(-c3cncc4ccccc34)cc2)cn1 [BI-1347] and write its reported pEC50. 9.03

###

Exercise: for every item that follows, state its recorded EC50.
Test system: HAdV species C5 DBP-mneongreen
Assay: HAdV replication assay in A549 cells
Format: cell-based
Conditions: Human adenovirus sp., A549, read-out: EC50 HAdV
Put your answer as a value accompanied by its unit after it.

>>> result("Cc1n[nH]c2ncc(C(=O)N3CCC[C@H]3c3ccc(Cl)cc3)cc12")
"340 nM"
>>> result("CN(C)C(=O)Cn1cc(-c2ccc(-c3cncc4ccccc34)cc2)cn1")
"50 nM"

Okay, next one:
Supply measured EC50 of Cn1ncc2cc(-c3cnc(N)c(Cl)c3N3CCC4(CCNC4=O)CC3)ccc21 in your reply. 30 nM

###

Kindly state EC50 for each of the entries shown.
Tested on: ChCMV strain Herberling
Assay: ChCMV replication assay in HFFs (immunofluorescence)
Format: cell-based, chimpanzee cytomegalovirus
Details: in Pan troglodytes, n = 2
Answers are plain numbers, in nM.

Use the examples below as a reference point.
>>> number("Cn1ncc2cc(-c3cnc(N)c(Cl)c3N3CCC4(CCNC4=O)CC3)ccc21")
31
>>> number("CN(C)C(=O)Cn1cc(-c2ccc(-c3cncc4ccccc34)cc2)cn1")
11.6

Quick one: give measured EC50 for Cc1n[nH]c2ncc(C(=O)N3CCC[C@H]3c3ccc(Cl)cc3)cc12 21

###

Test: Neutral Red uptake cell viability assay in mock-infected U373 cells
Assay type: cell-based
Details: human, mock-infected (uninfected) U373 cells; read-out: CC50 Mock-inf.
test-readout: CC50 at 14 d (µM)
Answers are plain numbers, in µM.

Could you please provide reported CC50 at 14 d for Cc1n[nH]c2ncc(C(=O)N3CCC[C@H]3c3ccc(Cl)cc3)cc12 [MSC-2530818] ? Thanks! 87

###

Tested on: HCMV Merlin-GFP
Assay: HCMV Merlin-GFP replication assay in HFFs
Assay type: cell-based, human cytomegalovirus
Conditions: Human betaherpesvirus 5, HFF, read-out: EC50 Merlin-GFP
test-readout: EC50 (nM)
Answers are plain numbers, in nM.

Some solved entries appear below for comparison.
>>> number("CN(C)C(=O)Cn1cc(-c2ccc(-c3cncc4ccccc34)cc2)cn1 [BI-1347]")
0.54
>>> number("Cn1ncc2cc(-c3cnc(N)c(Cl)c3N3CCC4(CCNC4=O)CC3)ccc21 [CCT-151921]")
1.27

Let us move to another entry and its EC50.
Indicate its recorded EC50; the molecule in question is Cc1n[nH]c2ncc(C(=O)N3CCC[C@H]3c3ccc(Cl)cc3)cc12 [MSC-2530818] 5.55

###

Test: Neutral Red uptake cell viability assay in mock-infected U373 cells
Type: cell-based
Conditions: human; U373; read-out: CC50 Mock-inf.
test-readout: CC50 at 14 d

State its CC50 at 14 d for this molecule: Cn1ncc2cc(-c3cnc(N)c(Cl)c3N3CCC4(CCNC4=O)CC3)ccc21 [CCT-151921] > 100 µM

###

Test: Neutral Red uptake cell viability assay in mock-infected HFFs
Format: cell-based
Conditions: human; HFF; read-out: CC50 Mock-inf.
Protocol: To address cell viability after compound treatment, a NR uptake assay was performed. Uninfected cells were seeded at equal numbers as for antiviral replication assays and treated with compounds or solvent control. The treatment was performed for HFFs (7 d), U373 (14 d), A549 (3 d), J-Jhan (14 d), and non-dox-induced iSLK.219 cells (3 d). […] NR fluorescence was quantified using the Victor X4 microplate reader (PerkinElmer, Waltham, MA, USA) (560/630 nm). […]
test-readout: CC50 at 7 d

Note CC50 at 7 d for the compound shown: Cn1ncc2cc(-c3cnc(N)c(Cl)c3N3CCC4(CCNC4=O)CC3)ccc21 > 100 µM
